- System: Human Multiple myeloma cell line (MM.1S)
- assayComment: Inhibition of MM.1S cell proliferation (CellTiter luminescent viability)
- Format: cell-based
- testParameters: Homo sapiens, MM1.S, Table IL1, BCR-ABL inhibitor-based, 10 nM, 96 hours, read-out: Inhibition Rate at 10 nM (%)
measuredQuantity: inhibition at 0.01 µM

O=C1CCN(N2C(=O)c3cccc(N4CCC(CN5CCC(N6CCN(c7ncc(C(=O)Nc8ccc(OC(F)(F)Cl)cc8)cc7-c7cc[nH]n7)CC6)CC5)CC4)c3C2=O)C(=O)N1
10 to 15%

INPUT: Any idea what inhibition at 0.01 µM was measured for Cc1nc(Nc2ncc(C(=O)Nc3c(C)cccc3Cl)s2)cc(N2CCN(CCO)CC2)n1 [Dasatinib, reference compound] ?
OUTPUT: 0 to 5%

INPUT: Looking for the measured inhibition at 0.01 µM of O=C1CCN(N2C(=O)c3ccc(N4CCC(CN5CCN(C6CCN(c7ncc(C(=O)Nc8ccc(OC(F)(F)Cl)cc8)cc7-c7cc[nH]n7)CC6)CC5)CC4)cc3C2=O)C(=O)N1 , can you help?
OUTPUT: 5 to 10%

INPUT: Which measured inhibition at 0.01 µM value corresponds to Cc1ccc(C(=O)Nc2ccc(N3CCN(CC4CCN(c5ccc6c(c5)C(=O)N(N5CCC(=O)NC5=O)C6=O)CC4)CC3)c(C(F)(F)F)c2)cc1C#Cc1cnc2cccnn12 ?
OUTPUT: 15 to 20%

INPUT: Look up inhibition at 0.01 µM for this molecule: O=C1CCN(N2C(=O)c3ccc(N4CCC(CN5CCN(c6ncc(C(=O)Nc7ccc(OC(F)(F)Cl)cc7)cc6-c6cc[nH]n6)CC5)CC4)cc3C2=O)C(=O)N1
OUTPUT: 20 to 30%

INPUT: I would be grateful if you could share the reported inhibition at 0.01 µM for Cc1ccc(C(=O)Nc2ccc(CN3CCN(Cc4ccc5c(c4)CN(N4CCC(=O)NC4=O)C5=O)CC3)c(C(F)(F)F)c2)cc1C#Cc1cnc2cccnn12 .
OUTPUT: 20 to 30%

INPUT: Bench note: what inhibition at 0.01 µM did O=C1CCN(N2C(=O)c3ccc(CN4CCN(C5CCN(c6ncc(C(=O)Nc7ccc(OC(F)(F)Cl)cc7)cc6-c6cc[nH]n6)CC5)CC4)cc3C2=O)C(=O)N1 show?
OUTPUT: 20 to 30%

---

- Test system: Human myeloid monocytic leukemia cell line (MV-4-11)
- assayComment: Inhibition of MV-4-11 cell proliferation (CellTiter luminescent viability)
- Type: cell-based
- testParameters: Homo sapiens, MV4-11; Table IA3, IRAK4 inhibitor-based; MV-4-11, 500 nM, 96 hours; read-out: Inhibition Rate at 500 nM (%)
measuredQuantity: inhibition at 0.5 µM

Recorded results for 5 compounds are shown here.
CC(C)(O)c1cc2nn(C3CCN(Cc4ccc5c(c4)CN(N4CCC(=O)NC4=O)C5=O)CC3)cc2cc1NC(=O)c1cccc(C(F)(F)F)n1
60 to 80%
CC(C)(O)c1cc2nc(C3CCN(CC4CCN(c5cccc6c5C(=O)N(N5CCC(=O)NC5=O)C6=O)CC4)CC3)sc2cc1NC(=O)c1cccc(C(F)(F)F)n1
50 to 60%
O=C1CCN(N2C(=O)c3ccc(N4CCC(N5CCC(CN6CCC(n7cc(NC(=O)c8cnn9ccc(N%10C[C@H]%11C[C@@H]%10CO%11)nc89)c(C(F)F)n7)CC6)CC5)CC4)cc3C2=O)C(=O)N1
50 to 60%
Cc1cc(-c2nc(C(=O)Nc3cc4oc(N5CCN(Cc6ccc7c(c6)CN(N6CCC(=O)NC6=O)C7=O)CC5)nc4nc3N3CC[C@@H](O)C3)co2)ccn1
80 to 100%
CC(C)(O)c1cc2nc(C3CCN(Cc4ccc5c(c4)CN(N4CCC(=O)NC4=O)C5=O)CC3)sc2cc1NC(=O)c1cccc(C(F)(F)F)n1
80 to 100%

Next:
INPUT: Human myeloid monocytic leukemia cell line (MV-4-11) / inhibition at 0.5 µM / O=C1CCN(N2Cc3cc(CN4CCN(c5ccc(-n6cc(NC(=O)c7coc(-c8ccnc(NCC(F)(F)F)c8)n7)c(C(F)F)n6)cc5)CC4)ccc3C2=O)C(=O)N1 : value?
OUTPUT: 100 to 110%
